# target.desc: μ-opioid receptors (MOP receptors) (Mus musculus, UniProt P42866)
# Construct: expressed in transfected cells; host or cells: HEK293
# Sequence (P42866 whole entry): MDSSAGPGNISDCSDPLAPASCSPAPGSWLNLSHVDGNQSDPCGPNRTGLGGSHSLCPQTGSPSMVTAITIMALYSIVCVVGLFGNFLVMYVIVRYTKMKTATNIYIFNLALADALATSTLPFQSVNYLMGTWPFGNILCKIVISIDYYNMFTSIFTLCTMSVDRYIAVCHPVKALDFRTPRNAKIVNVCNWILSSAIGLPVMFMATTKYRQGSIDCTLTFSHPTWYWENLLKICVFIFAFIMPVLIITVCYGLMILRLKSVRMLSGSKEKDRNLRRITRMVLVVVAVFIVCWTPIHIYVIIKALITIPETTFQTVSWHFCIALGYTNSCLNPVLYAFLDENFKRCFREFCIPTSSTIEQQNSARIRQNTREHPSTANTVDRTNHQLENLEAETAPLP
# Type: cell-based
# protocol.conditions: Conc 10^−6 M
Marks after values point to notes of the source that are not given here.
% of forskolin stimulated cyclic AMP response values for the molecules below.
property.measured: % of forskolin stimulated cyclic AMP response

[[record]]
molecule = "O=Cc1c(-c2ccccc2)no[n+]1[O-] [Compound 14]"
measurement = "110.6^a %"

[[record]]
molecule = "Cc1c(-c2ccc(F)cc2)no[n+]1[O-] [Compound 23]"
measurement = "90.0%"

[[record]]
molecule = "[O-][n+]1onc(-c2ccccc2)c1CO [Compound 31]"
measurement = "60.0^a %"

[[record]]
molecule = "Cc1c(-c2ccccc2)no[n+]1[O-] [Compound 13]"
measurement = "84.5^a %"

[[record]]
molecule = "O=C(c1no[n+]([O-])c1-c1ccccc1)C(F)(F)F [Compound 22]"
measurement = "87.5%"


Just for reference, patent US8822509B2 is where these values come from.
